Reference source: patent US12336981B2

TARGET_DESC: NAMPT (Homo sapiens, UniProt P43490)
Construct: His tag; host or cells: E. coli
Sequence (P43490 whole entry): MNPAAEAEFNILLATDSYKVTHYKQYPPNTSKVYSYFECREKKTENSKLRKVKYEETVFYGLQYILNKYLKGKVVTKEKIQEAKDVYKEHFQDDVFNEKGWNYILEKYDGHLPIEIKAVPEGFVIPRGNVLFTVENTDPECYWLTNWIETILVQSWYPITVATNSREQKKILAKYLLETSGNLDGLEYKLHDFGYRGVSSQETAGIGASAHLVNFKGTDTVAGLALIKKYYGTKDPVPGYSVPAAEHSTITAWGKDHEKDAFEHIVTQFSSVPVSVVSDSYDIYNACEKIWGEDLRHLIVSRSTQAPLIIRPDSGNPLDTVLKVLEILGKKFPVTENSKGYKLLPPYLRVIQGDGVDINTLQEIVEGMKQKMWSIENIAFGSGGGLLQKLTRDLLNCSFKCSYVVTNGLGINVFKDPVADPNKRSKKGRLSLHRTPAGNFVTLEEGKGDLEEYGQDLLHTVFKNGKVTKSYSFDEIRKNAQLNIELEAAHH
EXPERIMENT_SUMMARY: Biochemical inhibition assay: NAMPT enzymatic reaction, NMN quantified by mass spectrometry
TEST_SETTINGS: NAMPT enzymatic reaction; read-out: Biochem IC50
IC50 strictly less than 20 nM = 1 (yes). Otherwise 0 (no).

Hello, I'm reviewing records and need to know if IC50 of O=C(NCc1ccc(S(=O)(=O)c2cc(F)ccc2Cl)cc1)c1cc2cnccc2[nH]1 is below 20 nM. Could you check? 0 (no)

In the record for O=C(NCc1ccc(S(=O)(=O)N2CCCCC2)cc1)c1ccc2nc[nH]c2c1 , is IC50 less than 20 nM? 0 (no)

Given O=C(NCc1ccc(S(=O)(=O)c2ccc(Cl)cc2)cc1)c1cnc2nccn2c1 , is recorded IC50 strictly lower than 20 nM? 1 (yes)

State whether 20 nM exceeds IC50 recorded for CCCCc1ccc(S(=O)(=O)c2ccc(CNC(=O)c3cc4cnccc4[nH]3)cc2)cc1 . 1 (yes)

Given the entry O=C(NCc1ccc(S(=O)(=O)c2c(Cl)cccc2Cl)cc1)c1cnc2[nH]ncc2c1 , would its reported IC50 be below 20 nM? 0 (no)

Just wondering, is IC50 of CCCCOc1ccc(S(=O)(=O)c2ccc(CNC(=O)c3cc4cnccc4[nH]3)cc2)cc1Cl below 20 nM? 1 (yes)

Check if IC50 falls below 20 nM for COc1ccc(C)c(NS(=O)(=O)c2ccc(CNC(=O)c3cc4cnccc4[nH]3)cc2)c1 . 0 (no)

Does COc1ccc(S(=O)(=O)c2ccc(CNC(=O)c3cc4ccncc4o3)cc2)c(C)c1 have IC50 strictly under 20 nM? 0 (no)

Given the entry Cc1ccc(Cl)c(S(=O)(=O)c2ccc(CNC(=O)c3cnc4nccn4c3)cc2)c1Cl , would its reported IC50 be below 20 nM? 1 (yes)

----------
TARGET_DESC: NAMPT (Homo sapiens)
Construct: His tag; host or cells: E. coli
EXPERIMENT_SUMMARY: Biochemical inhibition assay: NAMPT enzymatic reaction, NMN quantified by mass spectrometry
TEST_SETTINGS: NAMPT enzymatic reaction; read-out: Biochem IC50
// NB: equality with 0.01 µM counts as Not met; only IC50 strictly below is Met

Field: below-cutoff. Rule: recorded IC50 strictly less than 0.01 µM. Subject: CCOc1cccc(S(=O)(=O)c2ccc(CNC(=O)c3cc4ccncc4o3)cc2)c1 Met

Here's an entry: Cc1ccc(F)cc1S(=O)(=O)c1ccc(CNC(=O)c2cc3cnccc3[nH]2)cc1 . Is its IC50 below 0.01 µM? Not met

Is the reported IC50 for COc1ccc(S(=O)(=O)c2ccc(CNC(=O)c3cc4cnccc4[nH]3)cc2)cc1Cl strictly below 0.01 µM? Not met

hey, is IC50 for Cc1ccc(F)c(S(=O)(=O)c2ccc(CNC(=O)c3cc4ccncc4o3)cc2)c1 lower than 0.01 µM or not? Met

Please let me know if O=C(NCc1ccc(S(=O)(=O)c2ccc(F)c(F)c2)cc1)c1cc2ccncc2s1 shows IC50 below 0.01 µM. Met

Lab note: confirm whether the reported IC50 for this compound is below 0.01 µM, equality not counting. compound: CCCOc1ccc(S(=O)(=O)c2ccc(CNC(=O)c3cc4ccncc4s3)cc2)cc1Cl Not met

Hello, I'm reviewing records and need to know if IC50 of N#Cc1cccc(S(=O)(=O)c2ccc(CNC(=O)c3cc4cnccc4[nH]3)cc2)c1 is below 0.01 µM. Could you check? Not met

Criterion: IC50 strictly below 0.01 µM. Is it met by O=C(NCc1ccc(S(=O)(=O)c2ccc(Cl)c(Cl)c2)cc1)c1cc2ccncc2o1 ? Not met

Determine if Cc1cccc(S(=O)(=O)c2ccc(CNC(=O)c3cc4ccncc4s3)cc2)c1F shows IC50 strictly lower than 0.01 µM. Not met

# strict comparison: is reported IC50 < 0.01 µM? input = Cc1cc(C)cc(S(=O)(=O)c2ccc(CNC(=O)c3cnc4[nH]ncc4c3)cc2)c1 Not met

Please determine if O=C(NCc1ccc(S(=O)(=O)c2ccc(Cl)cc2)cc1)c1cc2cnccc2[nH]1 is below 0.01 µM in terms of IC50. Met

Take the compound COc1cc(C)cc(S(=O)(=O)c2ccc(CNC(=O)c3cc4ccncc4o3)cc2)c1 and say whether its IC50 is less than 0.01 µM. Met

Is the reported IC50 for COc1ccc(C#N)cc1S(=O)(=O)c1ccc(CNC(=O)c2ccc3nccn3c2)cc1 strictly below 0.01 µM? Not met

Would you kindly verify if IC50 of CCOc1ccc(S(=O)(=O)c2ccc(CNC(=O)c3ccc4nccn4c3)cc2)cc1F is strictly less than 0.01 µM? Not met

State whether 0.01 µM exceeds IC50 recorded for COc1ccc(Cl)cc1S(=O)(=O)c1ccc(CNC(=O)c2cnc3[nH]ncc3c2)cc1 . Not met

Problem: For the compound COc1ccc(C)cc1S(=O)(=O)c1ccc(CNC(=O)c2cc3ccncc3o2)cc1 , is IC50 under 0.01 µM? Not met

Bench note: check whether COc1cccc(S(=O)(=O)c2ccc(CNC(=O)c3ccc4nccn4c3)cc2)c1F shows IC50 below 0.01 µM Not met

Identify whether the compound O=C(NCc1ccc(S(=O)(=O)c2cccnc2)cc1)c1cc2cnccc2[nH]1 records IC50 below 0.01 µM. Not met

Hello, I'm reviewing records and need to know if IC50 of O=C(NCc1ccc(S(=O)(=O)c2cc(F)ccc2Cl)cc1)c1cc2ccncc2o1 is below 0.01 µM. Could you check? Not met

Find out if reported IC50 for Cc1c(Cl)cccc1S(=O)(=O)c1ccc(CNC(=O)c2cc3cnccc3[nH]2)cc1 is less than 0.01 µM Not met

Answer whether the compound Cc1cc(S(=O)(=O)c2ccc(CNC(=O)c3cc4cnccc4[nH]3)cc2)ccc1F has IC50 strictly less than 0.01 µM Met

Dear reviewer, please state whether COc1cc(Cl)cc(S(=O)(=O)c2ccc(CNC(=O)c3cc4cnccc4[nH]3)cc2)c1 has IC50 strictly beneath 0.01 µM. Not met

Hi there! Is IC50 for COc1cc(F)cc(S(=O)(=O)c2ccc(CNC(=O)c3cnc4nccn4c3)cc2)c1 below 0.01 µM, do you know? Met

Quick check: does COc1ccc(C(C)=O)cc1S(=O)(=O)c1ccc(CNC(=O)c2cnc3[nH]ncc3c2)cc1 have IC50 under 0.01 µM? Not met
